Tested on: HBV
Assay: Anti-HBV activity in HepG2.2.15 cells (HBV DNA in culture medium by qPCR)
Format: cell-based
Conditions: Hepatitis B virus, HepG2.2.15, 144 h, HepG2.2.15 cells, 6 days treatment, HBV DNA in culture medium quantified by real-time PCR; read-out: EC50
I'd be grateful if you could share measured pEC50 for these entries.
// field semantics: pEC50 = negative decimal log of concentration (mol/L)

Request: pEC50, test system HBV, entry CCOC(=O)C1=C(CN2CC(F)(F)[C@@H]3CN(S(=O)(=O)[C@H]4C[C@H](C(=O)O)C4)C[C@@H]32)NC(c2nccs2)=N[C@H]1c1cccc(F)c1C (single isomer, unassigned)
7.15

Also CCOC(=O)C1=C(CN2CC(F)(F)[C@H]3[C@@H]2CCN3CCCC(C)(C)C(=O)O)NC(c2nccs2)=N[C@H]1c1cccc(F)c1C (single isomer, unassigned) ?
7.70

For CCOC(=O)C1=C(CN2CC(F)(F)[C@@H]3[C@H]2CN(C)N3CCC(C)(C)C(=O)O)NC(c2nccs2)=N[C@H]1c1cccc(F)c1Cl (single isomer, unassigned) then?
7.87

Would you mind doing CCOC(=O)C1=C(CN2CC(F)(F)C3C2CCN3CC(=O)O)NC(c2nccs2)=N[C@H]1c1cccc(F)c1C (stereo in doubt) as well?
7.98

Similarly, CCOC(=O)C1=C(CN2CC(F)(F)[C@H]3[C@@H]2CC2(CC2)N3CCC(C)(C)C(=O)O)NC(c2nccs2)=N[C@H]1c1cccc(F)c1C (single isomer, unassigned) ?
7.15

###

Tested on: HBV
Assay: Anti-HBV activity in HepG2.2.15 cells (HBV DNA in culture medium by qPCR)
Type: cell-based
Settings: Hepatitis B virus, HepG2.2.15, 144 h, HepG2.2.15 cells, 6 days treatment, HBV DNA in culture medium quantified by real-time PCR; read-out: EC50
Protocol: Example 2: Anti-Viral Assay in HepG2.2.15 Cells […] The change of HBV DNA level induced by the compounds was assessed by quantitative real-time polymerase chain reaction (qPCR). Briefly, the HBV DNA in the culture medium was extracted using QIAamp 96 DNA Blood Kit according to the manual and then quantified by real-time PCR assay using the primers and probe in the table 2 below. 2) DATA Analysis EC50 and CC50 values are calculated by the GRAPTIPAD PRISM software.
assay.readout: pEC50
Note on units: pEC50 is unitless, being -log10 of a concentration expressed in mol/L.

Recorded pEC50 of CCOC(=O)C1=C(CN2CC(F)(F)[C@@H]3CN(C(=O)C(C)(C)C(=O)O)C[C@@H]32)NC(c2nccs2)=N[C@H]1c1cccc(F)c1Cl (single isomer, unassigned) , please.
7.23

Now give it for CCOC(=O)C1=C(CN2CC(F)(F)[C@H]3[C@@H]2CCN3C2CCC(C(=O)O)C2)NC(c2nccs2)=N[C@H]1c1cccc(F)c1C (single isomer, unassigned) too.
8.51

Quick one: CCOC(=O)C1=C(CN2CC(F)(F)[C@@H]3[C@H]2CN(CC)N3CCC(C)(C)C(=O)O)NC(c2nccs2)=N[C@H]1c1cccc(F)c1C (single isomer, unassigned)
7.69

Likewise for CCOC(=O)C1=C(CN2CC[C@]3(F)C(=O)N(CC(C)(C)C(=O)O)C[C@H]23)NC(c2nccs2)=N[C@H]1c1cccc(F)c1C (relative stereo) ?
7.41

###

Experiment: Cytotoxicity determination in HepG2.2.15 cells (CCK-8 cell viability)
Assay type: cell-based
Conditions: human, 6 days treatment, CCK-8 assay, highest concentration 100 uM
Give measured CC50 at 6 days for each item. Keep answers brief.
Record the value in µM, omitting the unit from your answer.

Any idea what its CC50 at 6 days is? The compound is COC(=O)C1=C(CN2CC(F)(F)[C@H]3[C@@H]2CCN3CCC(C)(C)C(=O)O)NC(c2nccs2)=N[C@H]1c1cccc(F)c1C (single isomer, unassigned)
34.4

// next record CCOC(=O)C1=C(CN2CC(F)(F)[C@H]3[C@@H]2CCN3CCC(C)(C)C(=O)O)NC(c2nc(C)cs2)=N[C@H]1c1cccc(F)c1C (single isomer, unassigned)
12.7

Subsequent entry: CCOC(=O)C1=C(CN2CC[C@]3(F)C(=O)N(CC(C)(C)C(=O)O)C[C@H]23)NC(c2nccs2)=N[C@H]1c1cccc(F)c1C (relative stereo)
51.8

Next entry: CCOC(=O)C1=C(CN2CC(F)(F)[C@@H]3CN(c4ncc(C(=O)O)cn4)C[C@@H]32)NC(c2nccs2)=N[C@H]1c1cccc(F)c1C (single isomer, unassigned)
55.2

Try the compound CCOC(=O)C1=C(CN2CC(F)(F)[C@H]3[C@@H]2CCN3S(C)(=O)=O)NC(c2nccs2)=N[C@H]1c1cccc(F)c1C (single isomer, unassigned)
17.3

###

Test: Cytotoxicity determination in HepG2.2.15 cells (CCK-8 cell viability)
Format: cell-based
Conditions: human, 6 days treatment, CCK-8 assay, highest concentration 100 uM
assay.readout: CC50 at 6 days (µM)
State just the number; it will be interpreted in µM.

// query CC50 at 6 days value for entry CCOC(=O)C1=C(CN2CC(F)(F)[C@@H]3[C@H]2CN(CC(F)F)N3CCC(C)(C)C(=O)O)NC(c2nccs2)=N[C@H]1c1cccc(F)c1C (single isomer, unassigned)
8.8

// repeat for CCOC(=O)C1=C(CN2C[C@H](F)[C@]3(F)C(=O)N(CC(C)(C)C(=O)O)C[C@H]23)NC(c2nccs2)=N[C@H]1c1cccc(F)c1C (single isomer, unassigned) [Compound 204B] and report
72.1

Can you check CCOC(=O)C1=C(CN2CC(F)(F)C3CN(C(=O)C(C)(C)C(=O)O)CC32)NC(c2nccs2)=N[C@H]1c1cccc(F)c1C (stereo in doubt) next?
76.3

Queued: CCOC(=O)C1=C(CN2CC(F)(F)[C@H]3[C@@H]2CCN3C[C@H](C)C(=O)O)NC(c2nccs2)=N[C@H]1c1cccc(F)c1Cl (single isomer, unassigned) [Compound 149B]
34.1

###

Tested on: HBV
Assay: Anti-HBV activity in HepG2.2.15 cells (HBV DNA in culture medium by qPCR)
Type: cell-based
Conditions: Hepatitis B virus, HepG2.2.15, 144 h, HepG2.2.15 cells, 6 days treatment, HBV DNA in culture medium quantified by real-time PCR; read-out: EC50
assay.readout: EC50 (nM)
The answer is to be given in nM; state only the numeric part.

For the compound shown here, COC(=O)C1=C(CN2CC(F)(F)[C@H]3[C@@H]2CN(C(C)=O)N3CCC(C)(C)C(=O)O)NC(c2nccs2)=N[C@H]1c1ccc(F)c(F)c1C (single isomer, unassigned) [Compound 82B] , give the reported EC50.
37

Also CCOC(=O)C1=C(CN2CC(F)(F)[C@@H]3[C@H]2CN(C)N3CCOC(C)(C)C(=O)O)NC(c2nccs2)=N[C@H]1c1cccc(F)c1C (single isomer, unassigned) ?
155

Subsequent entry: CCOC(=O)C1=C(CN2CCC3C(=O)N(CC(C)(C)C(=O)O)C(=O)C32)NC(c2nccs2)=N[C@H]1c1cccc(F)c1C (some centres unmarked)
56.4

Can you handle CCOC(=O)C1=C(CN2CC(F)(F)[C@@H]3C(=O)N(CC(C)(C)c4nn[nH]n4)C[C@@H]32)NC(c2nccs2)=N[C@H]1c1cccc(F)c1C (single isomer, unassigned) next?
34.7

Item: CCOC(=O)C1=C(CN2CC(F)(F)[C@H]3[C@@H]2CCN3S(N)(=O)=O)NC(c2nccs2)=N[C@H]1c1cccc(F)c1C (single isomer, unassigned)
12

###

Assay: Cytotoxicity determination in HepG2.2.15 cells (CCK-8 cell viability)
Type: cell-based
Details: human, 6 days treatment, CCK-8 assay, highest concentration 100 uM
assay.readout: CC50 at 6 days
Please provide the amount together with its unit, number first.

Please report the recorded CC50 at 6 days for CCOC(=O)C1=C(CN2CC(F)(F)[C@H]3[C@@H]2CCN3C[C@H]2C[C@@H](C(=O)O)C2)NC(c2nccs2)=N[C@H]1c1cccc(F)c1C (single isomer, unassigned) [Compound 143B] .
22.8 µM

Try the compound CCOC(=O)C1=C(CN2CC(F)(F)[C@H]3[C@@H]2CCN3C[C@H]2C[C@@](C)(C(=O)O)C2)NC(c2nccs2)=N[C@H]1c1cccc(F)c1C (single isomer, unassigned) [Compound 116A]
12.1 µM

Now the compound COC(=O)C1=C(CN2CC(F)(F)[C@H]3[C@@H]2CCN3CCC(C)(C)C(=O)O)NC(c2nccs2)=N[C@H]1c1cccc(F)c1Cl (single isomer, unassigned)
40.1 µM

What about this compound? CCOC(=O)C1=C(CN2CC(F)(F)[C@@H]3C(=O)N(C[C@H](CC)C(=O)O)C[C@@H]32)NC(c2nccs2)=N[C@H]1c1cccc(F)c1C (single isomer, unassigned) [Compound 182B]
33.3 µM

// repeat for CCOC(=O)C1=C(CN2CC(F)(F)[C@H]3[C@@H]2CCN3CCC(C)C(=O)O)NC(c2nccs2)=N[C@H]1c1cccc(F)c1C (single isomer, unassigned) and report
34.6 µM
